Attribution: PubChem BioAssay AID431

Here the recorded cytotoxicity is given for each entry.
Experiment: viability loss of HPDE-C7K cells – cell-based, fluorescence, HTS, primary screen (AID 431);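 also: 0% = DMSO solvent wells and 100% = doxorubicin-treated wells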
Details: HPDE-C7K KRASV12 cells, Alamar Blue viability, 48 h; at 10 µM; stronger effect = higher value
About 1,100 (1.7%) of roughly 63,000 compounds were called active. For the sample, actives were picked, then their nearest neighbours and some compounds at random. Measured potencies and affinities stand elsewhere.
Supply the numeric figure in %, leaving out any unit text.

O=C(CSc1nc(-c2ccccc2)nc2c1CCCC2)N1CCOCC1	-14.2
O=C(c1ccco1)[C@@H]1[C@@H]2C(=O)N(c3ccc(F)cc3)C(=O)[C@@H]2C2c3ccccc3C=CN21 (some centres not stated)	6.6

Field request: cytotoxicity | item: "Cc1ccc(/C=c2/sc3nnc(-c4ccccc4Cl)n3c2=O)o1"
50.1

Look at this compound and give its reported cytotoxicity. "CCCCOC(=O)Cn1c(=O)oc2ccc(C)cc21"
5.8

Entry "CCOC(=O)c1sc(NC(=O)CSc2nc3c(cc2C#N)CCC3)c(C#N)c1C" : reported cytotoxicity = ?
-0.1

Any idea what its cytotoxicity is? The compound is "COc1ccc(C)cc1NC(=O)CN(c1ccccc1)S(C)(=O)=O"
-2.4

// cytotoxicity lookup, key: "Cc1onc(-c2ccccc2)c1C(=O)Nc1ccccc1N1CCOCC1"
4.2
